# System: HIV-1 strain IIIB
# assay.info: Anti-HIV-1 assay (p24 Ag ELISA)
# Type: cell-based
# conditions: Human immunodeficiency virus 1, IIIB, PBMC; read-out: IC50 against HIV-1 IIIB
measured.parameter: IC50 (nM)
Lab book: enter the figure in nM, no units written.

Supply reported IC50 belonging to this compound: C=C1CN(S(=O)(=O)c2ccc(C)cc2)CCCN(Cc2ccccc2)CCCN(S(=O)(=O)c2ccc(C)cc2)C1
600

---

# assay.info: Cytotoxic concentration (Example 2)
# Type: cell-based
# conditions: human, MT-4 cells; read-out: cytotoxic concentration (CC50)
measured.parameter: CC50 (µM)
Entry rule: numbers only, all in µM.

Annotate the compound C=C1CN(S(=O)(=O)c2ccc(C)cc2)CCCN(Cc2ccccc2)CCCN(S(=O)(=O)c2ccc(C)cc2)C1 with its measured CC50.
134
